- Compound: "COc1ccc(Nc2nc(NC3CCCCCC3)nc(N(C)C3CCNCC3)n2)cc1Cl"
  melting point: "114 to 116 °C"
- Compound: "COc1ccc(Nc2nc(NC3CCCCCC3)nc(N3CCSCC3)n2)cc1Cl"
  melting point: "78 to 80 °C"
- Compound: "COc1ccc(Nc2nc(NC3CCCCCC3)nc(Oc3ccccc3F)n2)cc1Cl"
  melting point: "98 to 100 °C"
- Compound: "COc1ccc(Nc2nc(NC3CCCCCC3)nc(OCC3CCCN3)n2)cc1Cl (centres unmarked)"
  melting point: "84 to 86 °C"
- Compound: "COc1ccc(Nc2nc(NC3CCCCCC3)nc(OC(C)C)n2)cc1Cl"
  melting point: "136 to 138 °C"
- Compound: "CCN1CCCC1CNc1nc(NCC2CCCCC2)nc(Nc2ccc(OC)c(F)c2)n1 (centres unmarked)"
  melting point: "72 °C"
- Compound: "COc1ccc(Nc2nc(O)nc(NC3CCCCCC3)n2)cc1Cl"
  melting point: "> 310 °C"
- Compound: "COc1ccc(Nc2nc(Nc3ccc(OC)c(F)c3)nc(OCC3CCCCC3)n2)cc1F"
  melting point: "181 °C"
- Compound: "COc1ccc(Nc2nc(NC(C)C)nc(N(C)C3CCNCC3)n2)cc1Cl"
  melting point: "129 °C"
- Compound: "COc1ccc(Nc2nc(NC3CCCCCC3)nc(OC3CCCN(C(C)=O)C3)n2)cc1Cl (centres unmarked)"
  melting point: "138 to 140 °C"
- Compound: "COc1ccc(Nc2nc(Cl)nc(OCC3CCCCC3)n2)cc1Cl"
  melting point: "114 °C"
